assay: Acute toxicity was determined in mice upon peroral administration; format: organism-based; settings: mouse, in vivo, po
outcome_measure: LD50

Look up LD50 for this molecule: CCOC(=O)CC(=O)N1CCS(=O)(=O)C1COc1ccccc1OC (stereo unspecified)
> 1000 mg/kg

Same again, this time with COc1ccccc1OCC1SCCN1C(=O)COC(C)=O (stereo unspecified)
> 1000 mg/kg

// next record COc1ccccc1OCC1SCCN1C(C)=O (stereo unspecified)
552 mg/kg

Can you check COC(=O)c1ccc(OCC2SCCN2C(=O)Cn2ccnc2)cc1 (stereo unspecified) next?
> 1000 mg/kg

Item: COc1ccccc1OCC1SCCN1C(=O)CC(=O)N1CCN(C(c2ccc(F)cc2)c2ccc(F)cc2)CC1 (stereo unspecified)
> 1000 mg/kg

Okay, and CCOC(=O)CC(=O)N1CCSC1COc1ccccc1O (stereo unspecified) ?
> 1000 mg/kg

How about COc1ccccc1SCC1SCCN1C(=O)Cn1ccnc1 (stereo unspecified) ?
958 mg/kg

COc1ccccc1OCC1SCCN1C(=O)CC(=O)N1CCN(Cc2ccccc2)CC1.Cl (stereo unspecified) ?
681 mg/kg

Moving on to the next molecule: COc1ccccc1OCC1SCCN1C(=O)CC(C)=O (stereo unspecified)
> 1000 mg/kg

Quick one: CCOC(=O)[C@@H]1CSC(COc2ccccc2OC)N1 (stereo partly specified)
757 mg/kg

Follow-up item: COc1ccccc1OCC1SCCN1C(=O)CC(=O)N1CCN(C(c2ccccc2)c2ccccc2)CC1 (stereo unspecified)
> 1000 mg/kg

Cited source: ChEMBL document CHEMBL1128569
